Values compiled from ChEMBL document CHEMBL3616472.

Target: Free fatty acid receptor 1 (Homo sapiens)
Sequence (O14842 whole entry): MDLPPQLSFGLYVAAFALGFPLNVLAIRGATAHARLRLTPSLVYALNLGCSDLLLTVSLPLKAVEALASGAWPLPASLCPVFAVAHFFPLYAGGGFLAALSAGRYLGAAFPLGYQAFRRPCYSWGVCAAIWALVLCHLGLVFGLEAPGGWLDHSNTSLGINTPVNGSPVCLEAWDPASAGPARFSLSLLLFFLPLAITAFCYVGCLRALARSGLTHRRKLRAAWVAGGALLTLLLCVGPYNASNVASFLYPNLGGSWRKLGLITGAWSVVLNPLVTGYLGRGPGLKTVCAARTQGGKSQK
Experiment: Agonist activity at human FFA1 expressed in CHO cells assessed as induction of receptor activation by measuring Ca2+influx at 100 nM incubated for by FLIPR method
Assay type: functional, cell-based
valueKind: Activity (%)

# example entries with known answers
compound: O=C(O)COc1ccc(NC(=O)Nc2ccccc2)cc1F
readoutUnits: %
observedResult: 8.47

compound: Cc1cccc(NC(=O)C(=O)Nc2ccc(OCC(=O)O)c(F)c2)c1
readoutUnits: %
observedResult: 17.6

compound: CCc1ccc(OCC(=O)Nc2ccc(OCC(=O)O)c(F)c2)cc1
readoutUnits: %
observedResult: 14.6

compound: CC(C)(C)c1ccc(OCC(=O)Nc2ccc(OCC(=O)O)c(F)c2)cc1
readoutUnits: %
observedResult: 7.65

compound: Cc1ccc(OC(C)C(=O)Nc2ccc(OCC(=O)O)c(F)c2)cc1C (stereo unspecified)
readoutUnits: %
observedResult: 36.8

1: Cc1ccccc1OCC(=O)Nc1ccc(OCC(=O)O)c(F)c1
2: O=C(O)COc1ccc(NC(=O)COc2cccc(C(F)(F)F)c2)cc1F
3: CCOc1ccc(OC(C)C(=O)Nc2ccc(OCC(=O)O)c(F)c2)cc1 (stereo unspecified)
4: CC(Oc1cccc(C(C)(C)C)c1)C(=O)Nc1ccc(OCC(=O)O)c(F)c1 (stereo unspecified)
Ask: Kindly order the items shown according to Activity, from the highest value down. Response format: the labels, sorted as the prompt asks.
Reply: 4, 1, 2, 3
(4: 32.8%, 1: 20.8%, 2: 11.3%, 3: 3.56%)
